assay: 3DG inactivation assay (3DG binding assay); conditions: 5 mM, 1 day, 37°
Where a name gives a salt, the structure may show the parent alone.
Recorded 3DG Conc by entry
Report the figure in µM without appending any unit label.

Field: example entries. Status: answers known.
• NC[C@H]1CC[C@H](C(=O)O)CC1 [Tranexamic Acid, reference compound] = 24.16
• Cc1ncc(C[n+]2csc(CCO)c2C)c(N)n1 [Thiamine-HCl] = 16.27
• CC(C)(CO)[C@@H](O)C(=O)NCCCO [Panthenol] = 18.10
• Cl.N[C@H]1C(O)O[C@H](CO)[C@@H](O)[C@@H]1O (stereo partly drawn) [Glucosamine HCl, D-Glucosamine HCl] = 43.42
• CNC[C@H](O)[C@@H](O)[C@H](O)[C@H](O)CO.Cl [Meglumine-HCl, reference compound] = 17.51
• CC(C)(CO)[C@@H](O)C(=O)NCCC(=O)[O-].CC(C)(CO)[C@@H](O)C(=O)NCCC(=O)[O-].[Ca+2] [Calcium Panthenate] = 18.13

Query O=C1O[C@H]([C@@H](O)CO)C(O)=C1O [Ascorbic Acid] yields 3DG Conc of 13.75

The measured 3DG Conc associated with NCCC(=O)N[C@@H](Cc1cnc[nH]1)C(=O)O [Carnosine] reads 16.18

###

Here, each record is paired with measured 3DG Conc data.
assay: 3DG inactivation assay (3DG binding assay); details: 6 mM, 3 days, 37°
Return type: number; implicit unit µM.

# example entries with known answers
• NCCC(=O)N[C@@H](Cc1cnc[nH]1)C(=O)O = 16.93
• Cc1ncc(COP(=O)(O)O)c(C=O)c1O [Pyridoxal-5′-Phosphate] = 8.12
• Cc1ncc(CO)c(CO)c1O = 15.83

The compound identified as `N=C(N)NCCC[C@H](N)C(=O)O` registered its 3DG Conc at 8.50

# 3DG Conc of Cc1ncc(CO)c(C=O)c1O.Cl [Pyridoxal-HCl] = 15.72

###

experiment: 3DG inactivation assay (3DG binding assay); details: 6 mM, 1 day, 37°
Test readout: 3DG Conc (µM)
Report the figure in µM without appending any unit label.

Worked examples, 4 compounds total:
- N=C(N)NCCC[C@H](N)C(=O)O [Arginine]: 13.66
- Cc1ncc(CO)c(CO)c1O [Pyridoxine]: 16.67
- Cc1ncc(CO)c(C=O)c1O.Cl [Pyridoxal-HCl]: 14.57
- Cc1ncc(COP(=O)(O)O)c(C=O)c1O [Pyridoxal-5′-Phosphate]: 13.00

Consider the additional compound presented here.
Lab note: NCCC(=O)N[C@@H](Cc1cnc[nH]1)C(=O)O [Carnosine] gave 3DG Conc of 15.96

###

Below, each entry is listed with its recorded 3DG Conc.
test: 3DG inactivation assay (3DG binding assay); details: 15 mM, 1 day, 37°
Structures can show the parent of a compound that is named as a salt.
Just the number in µM, nothing appended.

Consider the reported 3DG Conc for these compounds:
* NCCC(=O)N[C@@H](Cc1cnc[nH]1)C(=O)O [Carnosine] | 16.90
* CC(C)(CO)[C@@H](O)C(=O)NCCC(=O)[O-].CC(C)(CO)[C@@H](O)C(=O)NCCC(=O)[O-].[Ca+2] [Calcium Panthenate] | 18.84
* CNC[C@H](O)[C@@H](O)[C@H](O)[C@H](O)CO.Cl [Meglumine-HCl, reference compound] | 16.58
* Cc1ncc(C[n+]2csc(CCO)c2C)c(N)n1 [Thiamine-HCl] | 14.83
* Cl.N[C@H]1C(O)O[C@H](CO)[C@@H](O)[C@@H]1O (stereo partly drawn) [Glucosamine HCl, D-Glucosamine HCl] | 122.14

Data point: CC(C)(CO)[C@@H](O)C(=O)NCCCO [Panthenol] ; 3DG Conc = 17.74

response.value for NC[C@H]1CC[C@H](C(=O)O)CC1 [Tranexamic Acid, reference compound] (field: 3DG Conc) = 18.98

3DG Conc measured on O=C1O[C@H]([C@@H](O)CO)C(O)=C1O [Ascorbic Acid] = 13.99

###

experiment: 3DG inactivation assay (3DG binding assay); settings: 2 mM, 3 days, 37°
Measured 3DG Conc, listed per entry.
Return type: number; implicit unit µM.

Reference set, count: 4
* NCCC(=O)N[C@@H](Cc1cnc[nH]1)C(=O)O | 15.58
* Cc1ncc(COP(=O)(O)O)c(C=O)c1O [Pyridoxal-5′-Phosphate] | 12.29
* N=C(N)NCCC[C@H](N)C(=O)O | 13.14
* Cc1ncc(CO)c(CO)c1O | 16.35

Lab note: Cc1ncc(CO)c(C=O)c1O.Cl [Pyridoxal-HCl] gave 3DG Conc of 16.19

###

test: 3DG inactivation assay (3DG binding assay); conditions: 15 mM, 0 day
Test readout: 3DG Conc (µM)
Your answer is read as µM, so omit the unit and give the number.

Worked cases, answers included:
- CC(C)(CO)[C@@H](O)C(=O)NCCC(=O)[O-].CC(C)(CO)[C@@H](O)C(=O)NCCC(=O)[O-].[Ca+2] [Calcium Panthenate]: 22.86
- CC(C)(CO)[C@@H](O)C(=O)NCCCO: 18.08

So, NC[C@H]1CC[C@H](C(=O)O)CC1 [Tranexamic Acid, reference compound] ? Its 3DG Conc was 18.06

Short answer for Cl.N[C@H]1C(O)O[C@H](CO)[C@@H](O)[C@@H]1O (stereo partly drawn) [Glucosamine HCl, D-Glucosamine HCl] : 3DG Conc was 36.00

###

assay: 3DG inactivation assay (3DG binding assay); settings: 12 mM, 1 day, 37°
# 3DG Conc values compiled below
Please reply with the bare figure in µM and do not write the unit itself.

Solved cases (4 shown):
- Cc1ncc(CO)c(CO)c1O: 15.85
- Cc1ncc(COP(=O)(O)O)c(C=O)c1O [Pyridoxal-5′-Phosphate]: 12.20
- NCCC(=O)N[C@@H](Cc1cnc[nH]1)C(=O)O: 15.05
- N=C(N)NCCC[C@H](N)C(=O)O: 12.24

Recorded 3DG Conc (compound Cc1ncc(CO)c(C=O)c1O.Cl [Pyridoxal-HCl] ): 14.79

###

The following compounds are listed with their measured 3DG Conc values.
experiment: 3DG inactivation assay (3DG binding assay); details: 30 mM, 3 days, 37°
Counter-ions that a name gives are not always drawn.
Please reply with the bare figure in µM and do not write the unit itself.

* CC(C)(CO)[C@@H](O)C(=O)NCCCO [Panthenol] | 17.63

For reference, reported 3DG Conc for NCCC(=O)N[C@@H](Cc1cnc[nH]1)C(=O)O [Carnosine] stands at 13.97

Entry O=C1O[C@H]([C@@H](O)CO)C(O)=C1O [Ascorbic Acid] , 3DG Conc reported as 12.64

compound Cc1ncc(C[n+]2csc(CCO)c2C)c(N)n1 [Thiamine-HCl] , 3DG Conc observed: 14.89

###

assay: 3DG inactivation assay (3DG binding assay); details: 5 mM, 0 day
Test readout: 3DG Conc

Sample records with 3DG Conc:
- CC(C)(CO)[C@@H](O)C(=O)NCCCO: 19.54 µM
- CC(C)(CO)[C@@H](O)C(=O)NCCC(=O)[O-].CC(C)(CO)[C@@H](O)C(=O)NCCC(=O)[O-].[Ca+2] [Calcium Panthenate]: 21.06 µM
- NC[C@H]1CC[C@H](C(=O)O)CC1 [Tranexamic Acid, reference compound]: 20.96 µM

// moving on: another record for 3DG Conc
In plain terms, Cl.N[C@H]1C(O)O[C@H](CO)[C@@H](O)[C@@H]1O (stereo partly drawn) [Glucosamine HCl, D-Glucosamine HCl] has a documented 3DG Conc of 25.15 µM

###

assay: 3DG inactivation assay (3DG binding assay); details: 30 mM, 0 day
# 3DG Conc per entry

• Cl.N[C@H]1C(O)O[C@H](CO)[C@@H](O)[C@@H]1O (stereo partly drawn) [Glucosamine HCl, D-Glucosamine HCl] = 56.87 µM

The molecule `CC(C)(CO)[C@@H](O)C(=O)NCCCO` showed 3DG Conc equal to 18.91 µM

Per the record, CC(C)(CO)[C@@H](O)C(=O)NCCC(=O)[O-].CC(C)(CO)[C@@H](O)C(=O)NCCC(=O)[O-].[Ca+2] [Calcium Panthenate] has 3DG Conc of 22.09 µM

Note to self: 3DG Conc recorded for NC[C@H]1CC[C@H](C(=O)O)CC1 [Tranexamic Acid, reference compound] was 19.25 µM

###

Measured 3DG Conc accompanies every entry in the list below.
assay: 3DG inactivation assay (3DG binding assay); settings: 15 mM, 3 days, 37°
Where a name gives a salt, the structure may show the parent alone.
Numeric only. Scale: µM

• Cl.N[C@H]1C(O)O[C@H](CO)[C@@H](O)[C@@H]1O (stereo partly drawn) [Glucosamine HCl, D-Glucosamine HCl] = 181.09
• CNC[C@H](O)[C@@H](O)[C@H](O)[C@H](O)CO.Cl [Meglumine-HCl, reference compound] = 17.52
• NC[C@H]1CC[C@H](C(=O)O)CC1 [Tranexamic Acid, reference compound] = 19.21
• Cc1ncc(C[n+]2csc(CCO)c2C)c(N)n1 [Thiamine-HCl] = 14.81

Recorded 3DG Conc (compound `CC(C)(CO)[C@@H](O)C(=O)NCCCO` ): 16.84

# 3DG Conc (compound: `O=C1O[C@H]([C@@H](O)CO)C(O)=C1O` ) is 10.18

The recorded 3DG Conc for `NCCC(=O)N[C@@H](Cc1cnc[nH]1)C(=O)O` is 15.39

// recorded 3DG Conc for CC(C)(CO)[C@@H](O)C(=O)NCCC(=O)[O-].CC(C)(CO)[C@@H](O)C(=O)NCCC(=O)[O-].[Ca+2] [Calcium Panthenate] : 16.95
